Tested on: microorganisms
Experiment Description: Targeting peptide binding to target microorganisms (Tables 3, 10, 12)
Reported Conditions: microorganism(s) the targeting peptide binds; binding in aqueous buffers that varied with peptide solubility, preferably 1x PBS
Measurement Label: Target(s)

Recorded Target(s), per entry:
1T-266 (RAGTWLVVDEIR; Peptide with targeting and/or antimicrobial activity) :: S. sanguinis
1T-248 (IGGALNSCG; Peptide with targeting and/or antimicrobial activity) :: S. sanguinis
TT-305 (ARNALNMRDVPVDAAIIGIIDGMDEE; Peptide with targeting and/or antimicrobial activity) :: F. nucleatum
1T-192 (ILVLLALQVELDSKFQY; Peptide with targeting and/or antimicrobial activity) :: S. sanguinis

(Q) Can you look up the measured Target(s) of 1T-201 (KRKHENVIVAEEMRVIKN; Peptide with targeting and/or antimicrobial activity) for me?
(A) S. sanguinis

(Q) Please answer likewise for TT-306 (KILNEAEGKLLKVIEKNGEIDIEEI; Peptide with targeting and/or antimicrobial activity)
(A) F. nucleatum

---

System: microorganisms
Experiment Description: Peptide activities: targeting/binding, antimicrobial, growth or phenotype altering (Tables 7, 8)
Assay type: cell-based
Reported Conditions: peptides having multiple activities
Measurement Label: Activities

PF-746: peptide having multiple activities (FLGNSQYFTRK; Peptide with targeting and/or antimicrobial activity) :: G B
PF-681: peptide having multiple activities (TALTTVGVSGARLITYCVGVEDI; Peptide with targeting and/or antimicrobial activity) :: G B
PF-399: peptide having multiple activities (chain 1 FPIISALLGAIICIAIYSFIVNRKA; chain 2 FPIISALLGAIICIAIYSFIVNRKA; Peptide with targeting and/or antimicrobial activity) :: G B
PF-034: peptide having multiple activities (EPKKKHFPKMESASSEP; Peptide with targeting and/or antimicrobial activity) :: G B

(Q) Can you look up the measured Activities of PF-447: peptide having multiple activities (IDKSRNKDQFSHIFGLYNICSG; Peptide with targeting and/or antimicrobial activity) for me?
(A) G B

---

Tested on: microorganisms
Experiment Description: Targeting peptide binding to target microorganisms (Tables 3, 10, 12)
Reported Conditions: peptide binding in aqueous buffers that varied with peptide solubility; preferably 1x PBS
Measurement Label: Target(s) (microorganism bound by the targeting peptide)

1T-35 (EICLTLVFPIRGSYSEAAKFPVPIHIVEDGTVELPK; Peptide with targeting and/or antimicrobial activity) :: P. aeruginosa
1T-61 (HATLLPAVREAISRQLLPALVPRG; Peptide with targeting and/or antimicrobial activity) :: P. aeruginosa
1T-79 (FGTPWSITNFWKKNFNDRPDFDSDRRRY; Peptide with targeting and/or antimicrobial activity) :: S. pneumoniae
1T-122 (GAIPDPVTHRVDWEEDHQTRPSR; Peptide with targeting and/or antimicrobial activity) :: S. mitis
1T-84 (FRKKRYGLSILLWLNAFTNLVNSIHAFYMTLF; Peptide with targeting and/or antimicrobial activity) :: S. pneumoniae
1T-58 (CDDLHALERAGKLDALLSA; Peptide with targeting and/or antimicrobial activity) :: P. aeruginosa

(Q) Can you look up the measured Target(s) (microorganism bound by the targeting peptide) of 1T-77 (EMRISRIILDFLFLRKK; Peptide with targeting and/or antimicrobial activity) for me?
(A) S. pneumoniae

(Q) Please answer likewise for 1T-113 (HGAHQRTGQRLHHHRGRTVSGCRQNPVAGVDPDEHR; Peptide with targeting and/or antimicrobial activity)
(A) S. mitis

(Q) Please answer likewise for 1T-80 (GGNLGPGFGVIIP; Peptide with targeting and/or antimicrobial activity)
(A) S. pneumoniae

(Q) Please answer likewise for 1T-24 (EEAEEKLAEVSQAVKRLVR; Peptide with targeting and/or antimicrobial activity)
(A) P. aeruginosa

(Q) Please answer likewise for 1T-78 (FFKTIFVLILGALGVAAGLYIEKNYIDK; Peptide with targeting and/or antimicrobial activity)
(A) S. pneumoniae

---

System: microorganisms
Experiment Description: Peptide activities: targeting/binding, antimicrobial, growth or phenotype altering (Tables 7, 8)
Assay type: cell-based
Reported Conditions: peptides having multiple activities
Measurement Label: Activities

LIQKGLNQTFIVVIRLNNFIKKS [PF-013] :: G B
PF-385: peptide having multiple activities (chain 1 MIKKSILKIKYYVPVLISLTLILSA; chain 2 MIKKSILKIKYYVPVLISLTLILSA; Peptide with targeting and/or antimicrobial activity) :: G B
PF-379: peptide having multiple activities (chain 1 VFVVLFIIYLASKLLTKLFPIKK; chain 2 VFVVLFIIYLASKLLTKLFPIKK; Peptide with targeting and/or antimicrobial activity) :: G B

---

Tested on: A. baumannii
Experiment Description: MIC test / antimicrobial activity, A. baumannii
Format: cell-based, Acinetobacter baumannii
Ends that are not written are not given here.
Measurement Label: Organism MIC (μM)

KNKKQTDILEKVKEILDKKKKTKSVGQKLY [PF-538] :: A. baumannii, 25 μM
SKFKVLRKIIIKEYKGELMLSIQKQR [PF-530] :: A. baumannii, 25 μM
YIQFHLNQQPRPKVKKIKIFL-NH2 [PF-531] :: A. baumannii, 25 μM

---

System: microorganisms
Experiment Description: Morphology, biofilm and growth disrupting peptides (Table 5)
Assay type: cell-based
Design: key: A: Peptide aggregates; B: Less hyphal formation; Clumps; Diffuse clumps and small polyps; F: Diffuse growth; H: Thin; I: Growth inhibition; Microcolony formation; Rippled; Small polyps; Thick; W: Halo formation on top, microlonies on bottom
Reported Conditions: S. pneumoniae
Measurement Label: Organism, effect

PF-599: peptide having multiple activities (chain 1 LFEIFKPKH; chain 2 LFEIFKPKH; Peptide with targeting and/or antimicrobial activity) :: S. pneumoniae (R)
PF-691 (HRTVEFGVLGTYLVSGGSL; Peptide with targeting and/or antimicrobial activity) :: S. pneumoniae (R)

---

System: microorganisms
Experiment Description: Peptide activities: targeting/binding, antimicrobial, growth or phenotype altering (Tables 7, 8)
Type: cell-based
Reported Conditions: peptides having multiple activities
Measurement Label: Activities

PF-C139: peptide having multiple activities (chain 1 LLASHPERLSLGVFFVYRVLHLLLENT; chain 2 LLASHPERLSLGVFFVYRVLHLLLENT; Peptide with targeting and/or antimicrobial activity) :: G B
GSVIKKRRKRMAKKKHRKLLKKTRIQRRRAGK [PF-527] :: G B M
PF-452: peptide having multiple activities (MNNWIKVAQISVTVINEVIDIMKEKQNGGK; Peptide with targeting and/or antimicrobial activity) :: G B

---

Tested on: microorganisms
Experiment Description: Peptide activities: targeting/binding, antimicrobial, growth or phenotype altering (Tables 7, 8)
Format: cell-based
Reported Conditions: peptides having multiple activities
Measurement Label: Activities

Recorded Activities, per entry:
PF-558: peptide having multiple activities (ADAPPPLIVRYS; Peptide with targeting and/or antimicrobial activity) :: G B
PF-292: peptide having multiple activities (chain 1 SFVSTTVRLIFEESKRYKF; chain 2 SFVSTTVRLIFEESKRYKF; Peptide with targeting and/or antimicrobial activity) :: G B
PF-196: peptide having multiple activities (TTARYIRRQCHTSITPLSQG; Peptide with targeting and/or antimicrobial activity) :: G B
PF-411: peptide having multiple activities (chain 1 WVAVAILLNIALQTQLT; chain 2 WVAVAILLNIALQTQLT; Peptide with targeting and/or antimicrobial activity) :: G B
PF-573: peptide having multiple activities (EKKLIVKLIDSIGKSHEEIVGAG; Peptide with targeting and/or antimicrobial activity) :: G B

(Q) Quick check: Activities on microorganisms, item VMQSLYVKPPLILVTKLAQQN [PF-511] ?
(A) G B M
